Recorded protein stability index, one value per entry.
B1: KCNA3 (parent)
chain: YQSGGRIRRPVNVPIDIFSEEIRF

- Variants of: B1
- test: protein stability index of a GFP-peptide fusion (GPS, HEK-293T) (PSI 1-6); higher = more stable;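 note: lentivirally expressed fusions sorted by FACS into six bins by GFP to DsRed ratio, PSI derived from sequencing read proportions per bin multiplied by bin number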
- measurement.setup: c terminus: a fixed tail appended
value.type: protein stability index

> print(dat)
    variant.spec  value
 1          N12I   1.93
 2           G4D   2.07
 3          F24L   2.37
 4          S19N   2.74
 5          V13K   2.36
 6           R6S   2.08
 7          V11N   2.42
 8           Q2D   2.74
 9          V11M   2.01
10          R23V   1.68
11          F24K   1.94
12          I15T   2.37
13          V11K   1.85
14          N12V   1.41
15          P10F   1.39
16          V11S   1.74
17          D16R   1.64
18           G5F   1.68
19          F24A   2.53
20          I17M   2.21
21           I7C   2.38
22           Y1D    3.1
